Biological target: Mcl-1 protein (UniProtKB primary accession number: Q07820) (Homo sapiens, UniProt Q07820)
Sequence (Q07820 whole entry): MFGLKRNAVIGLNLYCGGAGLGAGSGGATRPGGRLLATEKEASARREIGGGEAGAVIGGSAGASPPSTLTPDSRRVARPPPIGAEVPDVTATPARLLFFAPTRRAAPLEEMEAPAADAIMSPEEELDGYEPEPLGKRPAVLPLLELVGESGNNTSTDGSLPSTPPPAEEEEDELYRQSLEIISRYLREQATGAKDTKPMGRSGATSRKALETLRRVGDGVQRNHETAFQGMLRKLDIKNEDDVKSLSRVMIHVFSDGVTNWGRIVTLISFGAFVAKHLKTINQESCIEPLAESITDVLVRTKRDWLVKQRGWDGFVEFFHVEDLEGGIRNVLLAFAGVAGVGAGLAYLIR
Assay: Inhibition of Mcl-1 by fluorescence polarisation, Method 1
Format: binding
Conditions: fluorescence polarisation; Method 1, or Method 2; read-out: IC50 (M) Mcl-1 FP
# Lookup of reported IC50 keyed by entry
// note: answer is a bare numeric in M

The following compounds have reported results that may help.
• COc1ccccc1-c1nccc(COc2ccccc2CC(Oc2ncnc3sc(-c4ccc(F)cc4)c(-c4ccc(OCCN5CCNCC5)c(Cl)c4C)c23)C(=O)O)n1 (stereo not drawn) = 9.48e-10
• CC#Cc1sc2ncnc(OC(Cc3ccccc3OCc3ccnn3C(C)(C)C)C(=O)O)c2c1-c1ccc(OCCN2CCN(C)CC2)c(Cl)c1C (stereo not drawn) = 5.4e-09

Using known records, supply IC50 for COc1ccccc1-c1nccc(COc2ccccc2CC(Oc2ncnc3sc(-c4ccc(OCCc5ccccc5)cc4)c(-c4ccc(OCCN5CCN(C)CC5)c(Cl)c4C)c23)C(=O)O)n1 (single isomer, unassigned) [Example 765]
6.58e-07
